- assay system: VEGF165 (Homo sapiens, UniProt P15692-4 P15692-4:27-191)
- Sequence (P15692 other isoform, or with tags, fused parts or gaps): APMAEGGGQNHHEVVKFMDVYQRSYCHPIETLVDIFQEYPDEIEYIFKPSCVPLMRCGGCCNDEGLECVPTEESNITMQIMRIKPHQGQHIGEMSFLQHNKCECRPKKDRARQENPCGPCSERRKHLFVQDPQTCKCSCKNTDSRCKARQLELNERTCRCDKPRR
- method notes: filter; s.d. 50; 37 C; divalent cation independent
- assay setup: tags: carrier-free, Sf 21 insect cell expressed, R & D Systems; chain copies: 2 (inferred)
quantity measured: pKd
Scale: negative log10 of molar concentration, which is what pKd denotes.

Prompt: What measured pKd goes with GCGAACCGAUGGAAUUUUUGGACGCUCGC (ssRNA, 2'-F pyrimidines, 2'-OMe purines except 2'-OH A5, G20) [t2-OMe] ?
Completion: 9.85
